This section presents molecules with their documented IC50 values.
# study-system: Cbl-b (Homo sapiens (Human), UniProt Q13191)
# Sequence (Q13191 40-426): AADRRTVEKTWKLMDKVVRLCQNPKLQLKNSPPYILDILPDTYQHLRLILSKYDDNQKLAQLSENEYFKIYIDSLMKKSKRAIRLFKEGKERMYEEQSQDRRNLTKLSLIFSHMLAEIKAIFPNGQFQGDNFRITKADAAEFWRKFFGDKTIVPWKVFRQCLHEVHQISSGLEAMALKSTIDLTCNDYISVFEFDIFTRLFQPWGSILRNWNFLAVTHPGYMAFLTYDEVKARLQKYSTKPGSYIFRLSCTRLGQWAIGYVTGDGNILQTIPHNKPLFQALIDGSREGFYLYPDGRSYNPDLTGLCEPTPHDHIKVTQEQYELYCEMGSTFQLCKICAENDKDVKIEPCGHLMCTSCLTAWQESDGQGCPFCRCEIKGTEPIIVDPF
# assay-protocol: Cbl-b LCK Ub TR-FRET assay (Cbl-b Lck HTRF)
# Format: biochemical

structure-smiles: CC(C)[C@@H]1CNCCN1Cc1cc2c(c(C(F)(F)F)c1)CN(c1cccc(C3([C@H](F)c4nncn4C)COC3)c1)C2=O
study-system: Cbl-b (Homo sapiens (Human), UniProt Q13191)
IC50, µM: 0.27
--
structure-smiles: C[C@H](N)c1cc2c(c(C(F)(F)F)c1)CN(c1cccc(C3([C@@H](F)c4nncn4C)COC3)c1)C2=O
study-system: Cbl-b (Homo sapiens (Human), UniProt Q13191)
IC50, µM: 0.032
--
structure-smiles: Cn1cnnc1[C@@H](F)C1(c2cccc(N3Cc4c(cc(CN5CCC[C@H](CO)C5)cc4C(F)(F)F)C3=O)c2)COC1
study-system: Cbl-b (Homo sapiens (Human), UniProt Q13191)
IC50, µM: 0.072
--
structure-smiles: Cn1cnnc1[C@H](F)C1(c2cccc(N3Cc4c(cc(CN5CCCC5)cc4C(F)(F)F)C3=O)c2)CC(F)(F)C1
study-system: Cbl-b (Homo sapiens (Human), UniProt Q13191)
IC50, µM: 0.11

----------
This section presents molecules with their documented pIC50 values.
# study-system: Cbl-b (Homo sapiens (Human))
# assay-protocol: Cbl-b LCK Ub TR-FRET assay (Cbl-b Lck HTRF)
# Assay type: biochemical
pIC50: −log10 of the molar value. Where a name gives a salt, the structure may show the parent alone.
experimental-readout: pIC50

molecule: Cn1cnnc1[C@@H](F)C1(c2cccc(N3Cc4c(cc(CN5CCC5)cc4C(F)(F)F)C3=O)c2)COC1 [Compound 71]
study-system: Cbl-b (Homo sapiens (Human))
quantitative-result: 6.62
--
molecule: Cn1cnnc1C[C@]1(c2cccc(N3Cc4c(cc(CNC5(C)CCC5)cc4C(F)(F)F)C3=O)c2)C[C@@H](C#N)C1 [Compound 468]
study-system: Cbl-b (Homo sapiens (Human))
quantitative-result: 7.82
--
molecule: C[C@H](NC1(C)CCC1)c1cc2c(c(C(F)(F)F)c1)CN(c1cccc(C3(Cc4nncn4C)CC(F)(F)C3)c1)C2=O [Compound 246]
study-system: Cbl-b (Homo sapiens (Human))
quantitative-result: 8.24
--
molecule: Cn1cnnc1CC1(c2cccc(N3Cc4c(cc(CNC56CC(C5)C6)cc4C(F)(F)F)C3=O)c2)CC(F)(F)C1 [Compound 356]
study-system: Cbl-b (Homo sapiens (Human))
quantitative-result: 7.92
--
molecule: CCC1(NCc2cc3c(c(C(F)(F)F)c2)CN(c2cccc(C4(Cc5nncn5C)CC(F)(F)C4)c2)C3=O)CCC1 [Compound 369, formate]
study-system: Cbl-b (Homo sapiens (Human))
quantitative-result: 7.77
--
molecule: CC(C)[C@H]1CN(C2COC2)CCN1Cc1cc2c(c(C(F)(F)F)c1)CN(c1cccc(C3([C@H](F)c4nncn4C)COC3)c1)C2=O [Compound 199]
study-system: Cbl-b (Homo sapiens (Human))
quantitative-result: 7.72
--
molecule: Cc1ccnn1CC1(c2cccc(N3Cc4c(cc(CN5CCN(C)C[C@@H]5C(C)C)cc4C(F)(F)F)C3=O)c2)COC1 [Compound 263]
study-system: Cbl-b (Homo sapiens (Human))
quantitative-result: 7.35
--
molecule: Cn1cnnc1CC1(c2cccc(N3Cc4c(Cl)cc(CNC5(C)CCC5)cc4C3=O)c2)CC(F)(F)C1 [Compound 252, formate]
study-system: Cbl-b (Homo sapiens (Human))
quantitative-result: 7.89
--
molecule: Cc1cnnn1CC1(c2cccc(N3Cc4c(cc(CNC5(C)CCC5)cc4C(F)F)C3=O)c2)COC1 [Compound 305]
study-system: Cbl-b (Homo sapiens (Human))
quantitative-result: 7.41
--
molecule: CCNc1cc(C2(Cc3nncn3C)COC2)cc(N2Cc3c(cc(CNC4(C)CCC4)cc3C(F)(F)F)C2=O)n1 [Compound 290]
study-system: Cbl-b (Homo sapiens (Human))
quantitative-result: 8.00
--
molecule: CC(C)[C@H]1CN(C)CCN1Cc1cc2c(c(C(F)(F)F)c1)CN(c1cccc(C3([C@@H](F)c4nc(F)cn4C)COC3)c1)C2=O [Compound 269]
study-system: Cbl-b (Homo sapiens (Human))
quantitative-result: 6.68
--
molecule: Cn1cnnc1[C@@H](F)C1(c2cccc(N3Cc4c(cc(CN5CC(C)(CO)C5)cc4C(F)(F)F)C3=O)c2)COC1 [Compound 75]
study-system: Cbl-b (Homo sapiens (Human))
quantitative-result: 6.60
--
molecule: Cn1cnnc1[C@@H](F)C1(c2cccc(N3Cc4c(cc(CN5CC(C)(C)C5)cc4C(F)(F)F)C3=O)c2)COC1 [Compound 73]
study-system: Cbl-b (Homo sapiens (Human))
quantitative-result: 6.85
--
molecule: CC(C)[C@H]1CN(Cc2cc3c(c(C(F)(F)F)c2)CN(c2cccc(C4([C@@H](F)c5nncn5C)COC4)c2)C3=O)CCN1 [Compound 90]
study-system: Cbl-b (Homo sapiens (Human))
quantitative-result: 7.38
--
molecule: CN1CC(Cc2cc3c(c(C(F)(F)F)c2)CN(c2cccc(C4(Cc5nncn5C)CC(F)(F)C4)c2)C3=O)C1 [Compound 442, formate]
study-system: Cbl-b (Homo sapiens (Human))
quantitative-result: 7.02
--
molecule: CC(C)[C@H]1CN(C)CCN1Cc1cc2c(c(C(F)(F)F)c1)CN(c1cc(C3([C@@H](F)c4nncn4C)CCC3)cc(NCC3CC3)n1)C2=O [Compound 278]
study-system: Cbl-b (Homo sapiens (Human))
quantitative-result: 7.92
--
molecule: CC(C)[C@H]1CNCCN1Cc1cc2c(c(C(F)(F)F)c1)CN(c1cccc(C3([C@@H](F)c4nncn4C)CCC3)c1)C2=O [Compound 216]
study-system: Cbl-b (Homo sapiens (Human))
quantitative-result: 8.10
--
molecule: CC(C)Nc1cc([C@H](C)Cc2nncn2C)cc(N2Cc3c(cc(CN4CCC5(CC5)C4)cc3C(F)(F)F)C2=O)n1.O=CO [Compound 55, formate]
study-system: Cbl-b (Homo sapiens (Human))
quantitative-result: 7.80
--
molecule: Cn1cnnc1[C@H](F)C1(c2cccc(N3Cc4c(cc(CN5CCC5)cc4C(F)(F)F)C3=O)c2)CC(F)(F)C1 [Compound 397]
study-system: Cbl-b (Homo sapiens (Human))
quantitative-result: 6.82
--
molecule: CC(C)[C@H]1CN(C)CCN1Cc1cc2c(c(C(F)(F)F)c1)CN(c1cccc(C3([C@H](F)c4nncn4C4CCCCC4)COC3)c1)C2=O [Compound 455]
study-system: Cbl-b (Homo sapiens (Human))
quantitative-result: 5.36
--
molecule: CC(C)[C@H]1CN(C)CCN1Cc1cc2c(c(C(F)(F)F)c1)CN(c1cccc(C3([C@H](F)c4nc(F)cn4C)COC3)c1)C2=O [Compound 270]
study-system: Cbl-b (Homo sapiens (Human))
quantitative-result: 6.89
--
molecule: Cn1cnnc1[C@H](F)C1(c2cccc(N3Cc4c(cc(CN5CC6CC5C6)cc4C(F)(F)F)C3=O)c2)COC1 [Compound 86]
study-system: Cbl-b (Homo sapiens (Human))
quantitative-result: 6.89
--
molecule: CC(=O)N1CCN(Cc2cc3c(c(C(F)(F)F)c2)CN(c2cccc(C4([C@@H](F)c5nncn5C)COC4)c2)C3=O)[C@@H](C(C)C)C1 [Compound 193]
study-system: Cbl-b (Homo sapiens (Human))
quantitative-result: 7.14
--
molecule: CC(C)Oc1cccc2c1CN(c1cccc(C3([C@@H](F)c4nncn4C)COC3)c1)C2=O [Compound 207]
study-system: Cbl-b (Homo sapiens (Human))
quantitative-result: 5.35
--
molecule: Cn1cnnc1CC1(c2cccc(N3Cc4c(cc(CNCC5CC5)cc4C(F)(F)F)C3=O)c2)CC(F)(F)C1 [Compound 334]
study-system: Cbl-b (Homo sapiens (Human))
quantitative-result: 7.96
--
molecule: Cn1cnnc1[C@H](F)C1(c2cccc(N3Cc4c(cc(CN5CCC5)cc4C(F)(F)F)C3=O)c2)COC1 [Compound 70]
study-system: Cbl-b (Homo sapiens (Human))
quantitative-result: 6.96

----------
# study-system: c-Cbl (Homo sapiens (Human), UniProt P22681)
# Sequence (P22681 47-435): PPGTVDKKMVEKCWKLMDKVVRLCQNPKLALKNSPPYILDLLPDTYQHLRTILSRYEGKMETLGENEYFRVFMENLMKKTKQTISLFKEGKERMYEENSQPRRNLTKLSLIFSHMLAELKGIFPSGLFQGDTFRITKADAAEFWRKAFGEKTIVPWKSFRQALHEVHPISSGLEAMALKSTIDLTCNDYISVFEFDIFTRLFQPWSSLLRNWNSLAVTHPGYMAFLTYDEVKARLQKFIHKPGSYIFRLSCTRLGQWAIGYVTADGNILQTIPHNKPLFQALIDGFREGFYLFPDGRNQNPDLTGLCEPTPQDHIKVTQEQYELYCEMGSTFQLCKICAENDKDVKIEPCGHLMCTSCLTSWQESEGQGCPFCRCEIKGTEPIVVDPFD
# assay-protocol: C-Cbl LCK Ub TR-FRET assay (c-cbl Lck HTRF)
# Type: biochemical
# condition: C-cbl Lck HTRF IC50 relative to Cbl-b Lck HTRF IC50
experimental-readout: (fold-selectivity) (x)

compound: Cn1cnnc1[C@@H](F)C1(c2cccc(N3Cc4c(cc(Oc5cn[nH]c5)cc4C(F)(F)F)C3=O)c2)COC1 [Compound 117]
study-system: c-Cbl (Homo sapiens (Human), UniProt P22681)
quantitative-result: 1.4

compound: CC(C)[C@@H]1CN(Cc2cc3c(c(C(F)(F)F)c2)CN(c2cccc(C4([C@@H](F)c5nncn5C)COC4)c2)C3=O)CCN1 [Compound 92]
study-system: c-Cbl (Homo sapiens (Human), UniProt P22681)
quantitative-result: 1.2

compound: Cn1cnnc1[C@H](F)C1(c2cccc(N3Cc4c(cc(CN5CC(C)(O)C5)cc4C(F)(F)F)C3=O)c2)COC1 [Compound 161]
study-system: c-Cbl (Homo sapiens (Human), UniProt P22681)
quantitative-result: 1.7

compound: Cn1cnnc1[C@@H](F)C1(c2cccc(N3Cc4c(cc(CN5CC[C@H](F)C5)cc4C(F)(F)F)C3=O)c2)COC1 [Compound 83]
study-system: c-Cbl (Homo sapiens (Human), UniProt P22681)
quantitative-result: 3.1

compound: Cn1cnnc1[C@H](F)C1(c2cccc(N3Cc4c(cc(CN5CC(CCO)C5)cc4C(F)(F)F)C3=O)c2)COC1 [Compound 177]
study-system: c-Cbl (Homo sapiens (Human), UniProt P22681)
quantitative-result: 2.2

compound: Cn1cnnc1[C@@H](F)C1(c2cccc(N3Cc4c(cc(CN5CCC[C@H](CO)C5)cc4C(F)(F)F)C3=O)c2)COC1 [Compound 144]
study-system: c-Cbl (Homo sapiens (Human), UniProt P22681)
quantitative-result: 0.91

compound: CC(C)[C@H]1CN(C)CCN1Cc1cc2c(c(C(F)(F)F)c1)CN(c1cccc(C3([C@@H](F)c4nncn4C)CC(F)(F)C3)c1)C2=O [Compound 189]
study-system: c-Cbl (Homo sapiens (Human), UniProt P22681)
quantitative-result: 0.95
